Test Name: CMR value (relative to BAY K 8644)
Type: ADME
Measured Endpoint: CMR

So for COC(=O)c1c(C)[nH]c(C)c1C(=O)c1ccccc1Sc1ccc([N+](=O)[O-])cc1 , the logged CMR turned out to be 11.13

# CMR (molecule: COC(=O)c1c(C)[nH]c(C)c1C(=O)c1ccccc1-c1ccccc1 ) is 9.6

// COC(=O)c1c(C)[nH]c(C)c1C(=O)c1ccccc1F : CMR value = 7.1

For this molecule ( COC(=O)c1c(C)[nH]c(C)c1C(=O)c1ccccc1OCc1ccccc1 ), measured CMR is 10.21

// CMR lookup, molecule = COC(=O)c1c(C)[nH]c(C)c1C(=O)c1ccccc1CCc1ccccc1 , result: 10.52

// CMR lookup, molecule = COC(=O)c1c(C)[nH]c(C)c1C(=O)c1ccccc1NC1CCCCC1 , result: 10.06

// CMR lookup, molecule = COC(=O)c1c(C)[nH]c(C)c1C(=O)c1ccccc1Sc1ccccc1 , result: 10.4

Documented CMR of COC(=O)c1c(C)[nH]c(C)c1C(=O)c1ccccc1[S+]([O-])Cc1ccccc1 (centres undefined) : 10.9

The value of CMR measured for the molecule COC(=O)c1c(C)[nH]c(C)c1C(=O)c1ccccc1CC1CCCCC1 turned out to be 10.15

Input COC(=O)c1c(C)[nH]c(C)c1C(=O)c1ccc([N+](=O)[O-])cc1Cl . Output CMR: 8.3

For this molecule ( COC(=O)c1c(C)[nH]c(C)c1C(=O)c1ccccc1I ), measured CMR is 8.39

Entry under test: COC(=O)c1c(C)[nH]c(C)c1C(=O)c1ccc(F)cc1Cc1ccc(F)cc1 . Its CMR was 10.09

The reported value for COC(=O)c1c(C)[nH]c(C)c1C(=O)c1ccccc1Oc1ccc([N+](=O)[O-])cc1 in terms of CMR is 10.47

Reported CMR of COC(=O)c1c(C)[nH]c(C)c1C(=O)c1ccccc1S(=O)(=O)Cc1ccccc1 : 10.93

Short answer for COC(=O)c1c(C)[nH]c(C)c1C(=O)c1ccc(F)cc1Br : CMR was 7.877

Kindly note the recorded CMR for COC(=O)c1c(C)[nH]c(C)c1C(=O)c1ccccc1OC , which is 7.7

Form field CMR, entry COC(=O)c1c(C)[nH]c(C)c1C(=O)c1ccccc1Nc1ccccn1 : 9.75

Data point: COC(=O)c1c(C)[nH]c(C)c1C(=O)c1ccccc1C ; CMR = 7.58

Item: COC(=O)c1c(C)[nH]c(C)c1C(=O)c1ccc(F)cc1Cc1ccccc1 | CMR: 10.08
